B1: HDV Ribozyme (parent)
chain: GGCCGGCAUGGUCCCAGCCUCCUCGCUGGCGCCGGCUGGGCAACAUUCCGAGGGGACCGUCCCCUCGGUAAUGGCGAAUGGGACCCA

Variants of: B1
PROTOCOL_TEXT: self-cleavage, relative activity (ratio to wild type); higher = more cleavage; co-transcriptional
Answer each item with its documented self-cleavage.
Reply with the value as a number alone.

Req: Find the recorded self-cleavage belonging to GGCCGGCAUGGUCUCAGCCUCCUCGGUGGCGCCGGCUGGGCAACAUUCCGAGGGGACCGUCCCCUCGGUAAUGGCGAAUGGGACCCA [C14U C26G] and report it.
Resp: 0.76

Req: Find the recorded self-cleavage belonging to GGCCGGCACGGUCCCAGCCUCCUCGCUGGCGCCGGCUGGGCAACAUUCCGAGGGGACCGUGCCCUCGGUAAUGGCGAAUGGGACCCA [U9C C61G] and report it.
Resp: 0.755

Req: Find the recorded self-cleavage belonging to GGCCGGCAUGGUCCCAGCCUCCUCGCUGGCGCCGGCUGGGCAAGAUUCCGAGGGGACCGUCCCCUCGGUAAUGGCGAAUUGGACCCA [C44G G80U] and report it.
Resp: 0.0966

Req: Find the recorded self-cleavage belonging to GGCCGGCAUGUUCCCAGCCUCCUCGCUGGCGCCGGCUGGGCAACAUUCCGAGGGGACCGUCCGCUCGGUAAUGGCGAAUGGGACCCA [G11U C63G] and report it.
Resp: 0.248

Req: Find the recorded self-cleavage belonging to GGCCGGAAUGGUCCCAGCCUCCUCGCUGGCGCCGGCUGGGCAACAUACCGAGGGGACCGUCCCCUCGGUAAUGGCGAAUGGGACCCA [C7A U47A] and report it.
Resp: 0.697

Req: Find the recorded self-cleavage belonging to GGCCGGCAUGGUCCCAGCCUCCUCGCUGGCGCCGGCUGGGCAACAUUCGGAGGGGACCGUCCCCUCGGUAAUGGCGAAUGGGACCCU [C49G A87U] and report it.
Resp: 0.913

Req: Find the recorded self-cleavage belonging to GGCAGGCAUGGUCCCAGCCUCCUCGCUGGCGCCGGCUGGGCAACAUUCCGAGGGGACCGUCCCCACGGUAAUGGCGAAUGGGACCCA [C4A U65A] and report it.
Resp: 0.594

Req: Find the recorded self-cleavage belonging to GGCCGGCAUGGUCCCAGCCUCCUCGCUGGCGCCGGUUGGGCAACAUUCCGAGGAGACCGUCCCCUCGGUAAUGGCGAAUGGGACCCA [C36U G54A] and report it.
Resp: 0.494

Req: Find the recorded self-cleavage belonging to GACCGGCAUGGUCCCAGCCUCCUCGCUGGCGCCGGCUGGGCAACAUUCCGAAGGGACCGUCCCCUCGGUAAUGGCGAAUGGGACCCA [G2A G52A] and report it.
Resp: 0.143

Req: Find the recorded self-cleavage belonging to GGCCGGCAUGGUCCCAGCCUCCUCGCUGGCGCCGGCUGGGCAACAUUCCGAGGGGACCGUCCCCUCGGCAAUGGUGAAUGGGACCCA [U69C C75U] and report it.
Resp: 0.0573

Req: Find the recorded self-cleavage belonging to GGCCGGCAUGGUCCCAGCCUCCUCGCUGGCGCCGGCUGGGCAACAUUCCGACGGGACCGGCCCCUCGGUAAUGGCGAAUGGGACCCA [G52C U60G] and report it.
Resp: 0.944

Req: Find the recorded self-cleavage belonging to GGCCGGCAUGGUCCCAGCCUCCUCGCUGGCGCCGGCUGGGCACCAUUCCGAGGGGACCGUCCCCUCGGUAAUGGCGAAUGGGAACCA [A43C C84A] and report it.
Resp: 0.332

Req: Find the recorded self-cleavage belonging to GGCCGGCAUGGUCCCAGCCUCCUCGCUGGCGCCGGCUGGGCAACAUUCCGAGGGGACCGUCCCCUCGGUAGUGUCGAAUGGGACCCA [A71G G74U] and report it.
Resp: 0.658

Req: Find the recorded self-cleavage belonging to GGCCGGCAUGGUCCCAGCCUCCUCGCUGGCGCCGUCUGGACAACAUUCCGAGGGGACCGUCCCCUCGGUAAUGGCGAAUGGGACCCA [G35U G40A] and report it.
Resp: 0.304

Req: Find the recorded self-cleavage belonging to GGCCGGCAUGGUCCCAGCCUCCUCGCUGCCGCCGGCUGGGCAAGAUUCCGAGGGGACCGUCCCCUCGGUAAUGGCGAAUGGGACCCA [G29C C44G] and report it.
Resp: 0

Req: Find the recorded self-cleavage belonging to GGCCGGCAUGGUCCCAGCCUCCUCGCUGGCGCCGGCUGGGCAACAUUCCGAGGGGACCGUCACCUCGGUCAUGGCGAAUGGGACCCA [C62A A70C] and report it.
Resp: 0.886

Req: Find the recorded self-cleavage belonging to GGCCGGCAUGGUCCCAGCCUCCUCGCUGGCGCCGGCUCGGCAACAUACCGAGGGGACCGUCCCCUCGGUAAUGGCGAAUGGGACCCA [G38C U47A] and report it.
Resp: 0.249

Req: Find the recorded self-cleavage belonging to GGCCGGCAUGGUCCCAGCCUCCUCGCUGGCGCCGGCUGGACAACAUUCCGAGGGGACCGUCCCCUCGGAAAUGGCGAAUGGGACCCA [G40A U69A] and report it.
Resp: 0.892

Req: Find the recorded self-cleavage belonging to GGCCGGCAUGGUCCCAGCCUCCUCGCUGGCGGCGGCUGGGCAACACUCCGAGGGGACCGUCCCCUCGGUAAUGGCGAAUGGGACCCA [C32G U46C] and report it.
Resp: 0.0978

Req: Find the recorded self-cleavage belonging to GGCCGGCAUGGUCCCAGCCUCCUCGCUGGCGCCAGCUGGGGAACAUUCCGAGGGGACCGUCCCCUCGGUAAUGGCGAAUGGGACCCA [G34A C41G] and report it.
Resp: 0.141

Req: Find the recorded self-cleavage belonging to GGCCGGCAUGGUCCCAGCCUCCUCGCUGGCUCCGGCUUGGCAACAUUCCGAGGGGACCGUCCCCUCGGUAAUGGCGAAUGGGACCCA [G31U G38U] and report it.
Resp: 0.0944

Req: Find the recorded self-cleavage belonging to GGCCGGCAUGGUCCCAGCCUCCUCGCUGGCUCCGACUGGGCAACAUUCCGAGGGGACCGUCCCCUCGGUAAUGGCGAAUGGGACCCA [G31U G35A] and report it.
Resp: 0.17

Req: Find the recorded self-cleavage belonging to GGCCGGCAUGGUCCCAGCCUCCCCGCUGGCGCCGGCUGGGCAACAUUCCGAGGGGACCGUCCCCUCGGUAGUGGCGAAUGGGACCCA [U23C A71G] and report it.
Resp: 0.9

Req: Find the recorded self-cleavage belonging to GGCCGGCAUGGUCCCAGCCUCCUCGCUGGCGCCGGCUGGGCAACAUUCUGAGGGGACCGUCCCCUCGGUAAUGGCGAAUGGGAACCA [C49U C84A] and report it.
Resp: 0.786

Req: Find the recorded self-cleavage belonging to GGCCGGCAUGGUCCCAGCCUCCUCGUUGGCGCCGGCUGGGCAACAUUCCGAGGGGACCGUCCCCUAGGUAAUGGCGAAUGGGACCCA [C26U C66A] and report it.
Resp: 1.09

Req: Find the recorded self-cleavage belonging to GGCCGGCAUGGUCCCAGCCUCCUCGCUGGCGCCGGCUGGGCAAGAUUCCGAGGGGACCGUCCCCUCGGUAUUGGCGAAUGGGACCCA [C44G A71U] and report it.
Resp: 0.962

Req: Find the recorded self-cleavage belonging to GGCCGGCAUGGUCCCAGCCUCCUCGCUGGCGCCGACUGGGCAACAUUCCGAGGGGACCGUCCCCUCGGUAACGGCGAAUGGGACCCA [G35A U72C] and report it.
Resp: 0.283

Req: Find the recorded self-cleavage belonging to GGCCGGCAUGGUCCCAGCCUCCUCGCUGGCGCCGGCUGGGCAACAUUCCGAGGGGACCGUCCCCUCGGUAAUGUCGAAUGGGACGCA [G74U C85G] and report it.
Resp: 0.617

Req: Find the recorded self-cleavage belonging to GGCCGGCAUGGUCCCAGCCUCCUCGCUGGCGCCGGCUGGGCAACGUUCCGAGGGGACCGUCCCCUCGGGAAUGGCGAAUGGGACCCA [A45G U69G] and report it.
Resp: 1.21

Req: Find the recorded self-cleavage belonging to GGCCGGCAUCGUCCCAGCCUCCUCGCUGGCGCCGGCUGGGCAACAUUCCGAGGGGACCGUCCCCUCGUUAAUGGCGAAUGGGACCCA [G10C G68U] and report it.
Resp: 0.778

Req: Find the recorded self-cleavage belonging to GGCCGGCAUGGACCCAGCCUCCUCGCUGGCGCCGGCUGGGCAACAUUCCGAGGGGACCGUACCCUCGGUAAUGGCGAAUGGGACCCA [U12A C61A] and report it.
Resp: 0.443

Req: Find the recorded self-cleavage belonging to GGCCGGCAUGGUCCCAGCCUCCUCGCUGGCGCCGGCUGGGCAGCAUUUCGAGGGGACCGUCCCCUCGGUAAUGGCGAAUGGGACCCA [A43G C48U] and report it.
Resp: 0.587

Req: Find the recorded self-cleavage belonging to GGCCGGCAUGGUCCCAGCCUCCUCGGUGGCGCCGGCUGGGCAACAUUACGAGGGGACCGUCCCCUCGGUAAUGGCGAAUGGGACCCA [C26G C48A] and report it.
Resp: 0.973

Req: Find the recorded self-cleavage belonging to GGCCCGCAUGGUCCCAGCCUCCUCGCUGGCGCCGGCUGGGCAACAUUCCGAGGGCACCGUCCCCUCGGUAAUGGCGAAUGGGACCCA [G5C G55C] and report it.
Resp: 0.0898

Req: Find the recorded self-cleavage belonging to GGCCGGCAUGGUCCCAGCCUCCUCGCUAGCGCCGGCUGGUCAACAUUCCGAGGGGACCGUCCCCUCGGUAAUGGCGAAUGGGACCCA [G28A G40U] and report it.
Resp: 0.0256

Req: Find the recorded self-cleavage belonging to GGCCGGCAUGGUCCCAACCUCCUCGCUGGCGCCGGCUGGGCAACACUCCGAGGGGACCGUCCCCUCGGUAAUGGCGAAUGGGACCCA [G17A U46C] and report it.
Resp: 0.506

Req: Find the recorded self-cleavage belonging to GGCCGGCAUGGUCCCAGCCUCCUCGCUGGCGCCGGCUGGGCAACAUUCCGAGGGGACCGUCCCCUCGGUAAUGACGAAUGGGACCCU [G74A A87U] and report it.
Resp: 0.628

Req: Find the recorded self-cleavage belonging to GGCCGGCAUGGUCCCAGCCUCCUCGCUGGCGCCGACUGGGCAACAUUCCGAGGGGACCGUCGCCUCGGUAAUGGCGAAUGGGACCCA [G35A C62G] and report it.
Resp: 0.448

Req: Find the recorded self-cleavage belonging to GGCCGGCAUGGUCCCAGCCUCCUCUCUGGCGCCGGCUGGGCAACAUUCCGAGGGGACCGUCCCCUCGGUAAAGGCGAAUGGGACCCA [G25U U72A] and report it.
Resp: 0.0707

Req: Find the recorded self-cleavage belonging to GGCCGGCAUGCUCCCAGCCUUCUCGCUGGCGCCGGCUGGGCAACAUUCCGAGGGGACCGUCCCCUCGGUAAUGGCGAAUGGGACCCA [G11C C21U] and report it.
Resp: 0.156

Req: Find the recorded self-cleavage belonging to GGCCGGCAUGGUCCCAGCCUCCUCGCUGGCGCCGGCUGGGCAACAUACUGAGGGGACCGUCCCCUCGGUAAUGGCGAAUGGGACCCA [U47A C49U] and report it.
Resp: 0.972

Req: Find the recorded self-cleavage belonging to GGCCGGCAUGGACCCAGCCUCCUCGCUGGCGCCGGCUGGGCAACAAUCCGAGGGGACCGUCCCCUCGGUAAUGGCGAAUGGGACCCA [U12A U46A] and report it.
Resp: 0.361

Req: Find the recorded self-cleavage belonging to GGCCGUCAUGGUCCCAGCCUCCUCGCUGGCGCCGGCUGGGCAACCUUCCGAGGGGACCGUCCCCUCGGUAAUGGCGAAUGGGACCCA [G6U A45C] and report it.
Resp: 0.0462

Req: Find the recorded self-cleavage belonging to GGCCGGCAUGGUGCCAGCCUCCUCGCUGGCGCCGGCUGGGCAAGAUUCCGAGGGGACCGUCCCCUCGGUAAUGGCGAAUGGGACCCA [C13G C44G] and report it.
Resp: 0

Req: Find the recorded self-cleavage belonging to GGCCGGCAUGGUCCCAGCCUCCUCGCUGGCGCGGGCUGGGCAACAUUCCGAGGGUACCGUCCCCUCGGUAAUGGCGAAUGGGACCCA [C33G G55U] and report it.
Resp: 0.204

Req: Find the recorded self-cleavage belonging to GGCCGGCAUGGUCCCAGCCUCCUCGCUGGCGCCGGCUGGGCAACAUUCCGAGGGGACCGUCUCCUCGGUGAUGGCGAAUGGGACCCA [C62U A70G] and report it.
Resp: 1.09
